Cited source for all entries: patent US5059717A

tested on: mice; assay: Acute toxicity in oral administration to mice; assay type: in vivo
I'd appreciate it if you could supply LD50 values for the items below.

{"Molecule": "Cc1cc2c(C(C)C)c(O)c(O)c(C=O)c2c(O)c1-c1c(C)cc2c(C(C)C)c(O)c(O)c(C=O)c2c1O [Example 1]", "LD50": "640 (450-768) mg/kg"}
{"Molecule": "Cc1cc2c(C(C)C)c(O)c(O)c(C=O)c2c(O)c1-c1c(C)cc2c(C(C)C)c(O)c(O)c(C=O)c2c1O [Example 3]", "LD50": "750 (646-870) mg/kg"}

Ask | Using the record for Cc1cc2c(C(C)C)c(O)c(O)c(C=O)c2c(O)c1-c1c(C)cc2c(C(C)C)c(O)c(O)c(C=O)c2c1O [known preparation, reference compound] , report its LD50.
Reply | 383 (340-426) mg/kg
